Just for reference, patent US8829034B2 is where these values come from.

EXPERIMENTAL_TARGET: human CB2R (Homo sapiens)
Construct: host or cells: CHO cells
Sequence (P34972 whole entry): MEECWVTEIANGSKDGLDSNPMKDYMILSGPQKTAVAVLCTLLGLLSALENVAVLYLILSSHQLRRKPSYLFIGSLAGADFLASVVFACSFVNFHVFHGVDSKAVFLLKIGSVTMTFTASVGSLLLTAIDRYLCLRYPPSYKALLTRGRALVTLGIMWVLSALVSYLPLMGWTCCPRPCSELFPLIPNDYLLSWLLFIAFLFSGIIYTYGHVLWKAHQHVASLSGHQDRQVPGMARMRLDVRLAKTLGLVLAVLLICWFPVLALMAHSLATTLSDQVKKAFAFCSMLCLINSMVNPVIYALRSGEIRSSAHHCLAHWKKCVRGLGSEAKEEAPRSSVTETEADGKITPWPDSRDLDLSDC
ASSAY_PROTOCOL: CB2R mediated modulation of cAMP synthesis
Format: cell-based
CONDITION: CHO cells expressing human CB2R; inhibition of forskolin-stimulated cAMP synthesis; compounds having agonist activity; read-out: CB2 EC50
# note: exactly 10 nM is not below, so it is Not met; use Met for EC50 strictly under it

COMPOUND	EXPERIMENTAL_TARGET	CATEGORY_LABEL
CCC(C)S(=O)(=O)C(C)(C)C(=O)Nc1nc(C(C)(C)C)cs1 (centres unmarked)	human CB2R (Homo sapiens)	Not met
CCC(C)S(=O)(=O)C(C)(C)C(=O)Nc1cc(C(C)(C)C)on1 (centres unmarked)	human CB2R (Homo sapiens)	Not met
CC(C)CCS(=O)(=O)C(C)(C)C(=O)Nc1cc(C(C)(C)C)no1	human CB2R (Homo sapiens)	Met
CC(C)(C)c1cc(NC(=O)C(C)(C)S(=O)(=O)C2CCOCC2)no1	human CB2R (Homo sapiens)	Met

[in] I'd appreciate it if you could check whether CC(C)(C)c1csc(NC(=O)C(C)(C)S(=O)(=O)C2CCOCC2)n1 has EC50 smaller than 10 nM.
[out] Not met

----------
EXPERIMENTAL_TARGET: human CB2R (Homo sapiens)
Construct: host or cells: CHO cells
ASSAY_PROTOCOL: CB2R mediated modulation of cAMP synthesis
Type: cell-based
# note: exactly 20 nM is not below, so it is No; use Yes for EC50 strictly under it

[in] I'd appreciate it if you could check whether Cc1nc(NC(=O)C(C)(C)S(=O)(=O)CC2CCOCC2)sc1C(C)(C)C has EC50 smaller than 20 nM.
[out] Yes

[in] I'd appreciate it if you could check whether CC(C)(C(=O)Nc1nc(-c2ccc(Cl)cc2)cs1)S(=O)(=O)CC1CCOCC1 has EC50 smaller than 20 nM.
[out] Yes

[in] I'd appreciate it if you could check whether CCCS(=O)(=O)C(C)(C)C(=O)Nc1ccc(C(C)(C)C)cc1 has EC50 smaller than 20 nM.
[out] Yes

[in] I'd appreciate it if you could check whether CC(C)(C(=O)Nc1ccc(C(F)(F)F)cn1)S(=O)(=O)C1CCOCC1 has EC50 smaller than 20 nM.
[out] No

[in] I'd appreciate it if you could check whether CC(C)(C)c1csc(NC(=O)C(C)(C)S(=O)(=O)C(C)(C)C)n1 has EC50 smaller than 20 nM.
[out] No

[in] I'd appreciate it if you could check whether CC(C)(C(=O)Nc1ccc(C(F)(F)F)cn1)S(=O)(=O)C1CCCCCC1 has EC50 smaller than 20 nM.
[out] Yes

[in] I'd appreciate it if you could check whether CC(C)(C)c1cc(NC(=O)C2(S(=O)(=O)C3CCCCC3)CCC2)no1 has EC50 smaller than 20 nM.
[out] Yes

[in] I'd appreciate it if you could check whether CC(C)CS(=O)(=O)C(C)(C)C(=O)Nc1cc(C(C)(C)C)on1 has EC50 smaller than 20 nM.
[out] No

----------
Reported values of pEC50 for individual entries
EXPERIMENTAL_TARGET: human CB2R (Homo sapiens)
Construct: host or cells: CHO cells
ASSAY_PROTOCOL: CB2R mediated modulation of cAMP synthesis
Assay type: cell-based
// scale note: pEC50 = -log10(conc_M); give the bare number

Illustrative cases are given below, each with its answer.
STRUCTURE_SMILES	pEC50
CC(C)(C(=O)Nc1nc(-c2ccccc2)cs1)S(=O)(=O)CC1CCOCC1	8.15
CC(C)(C)c1cc(NC(=O)C(C)(C)S(=O)(=O)CC2CC2)no1	7.46
Cn1nc(C(C)(C)C)cc1NC(=O)C(C)(C)S(=O)(=O)CC1CCC1	7.48
CCCS(=O)(=O)C(C)(C)C(=O)Nc1nc(C)c(C(C)(C)C)s1	8.14

[in] So what's the measured pEC50 for this one? CC(C)(C)c1cc(NC(=O)C(C)(C)S(=O)(=O)CC2CCC2)on1
[out] 8.43
